This section presents compounds with their documented GI50 values.
System: HCT-116
Experiment: NCI tumour cell line growth inhibition, 48 h
Calls of active or inactive are those of the source. Cut-off read from the data, not from the text of the source: active = GI50 up to about 1.1 µM and inactive = higher.

- CC1(C)N=C(N)N=C(N)N1c1cccc(OCc2cccc([N+](=O)[O-])c2)c1: 5.41 µM (inactive)
- O=C(O)COc1c(Cl)cc(Cl)c(C(c2c(Cl)cc(Cl)c(OCC(=O)O)c2Cl)C(Cl)(Cl)Cl)c1Cl: 28.2 µM (inactive)
- C[C@H](CCC(=O)O)[C@H]1CC[C@H]2[C@@H]3[C@@H](O)C[C@@H]4C[C@H](O)CC[C@]4(C)[C@H]3CC[C@]12C [URSODIOL]: > 100 µM (inactive)

Could you now look at the following compound, please?
Input line: What value of GI50 on HCT-116 does "Cc1nnc2n1N=C(c1cc(F)c(Cl)cc1Cl)/C(=C/c1ccc(Cl)cc1)S2" have?
Output line: 7 µM (inactive)
